# experimental target: T1, Fc tagged human TNFR1 (Sino Biological) (human, UniProt P19438 22-211, limits assumed)
# T1 construct: Bought reagent; also called hTNFR1; hTNFR1-Fc; not shown: Fc tag of the bought protein
# T1 sequence (looked up): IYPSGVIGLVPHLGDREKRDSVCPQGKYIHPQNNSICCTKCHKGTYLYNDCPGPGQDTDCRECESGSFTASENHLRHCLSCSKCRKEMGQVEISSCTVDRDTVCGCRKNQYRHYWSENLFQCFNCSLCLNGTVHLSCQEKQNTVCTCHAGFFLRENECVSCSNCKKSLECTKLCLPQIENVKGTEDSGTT
# assay overview: SPR, Biacore single cycle kinetics, stability study, after 1 year at -80° C.
readout kind: Kd
Record the result as number plus unit.

Given the entry TNF mutein B6 (ligand, Human TNF mutein, TGTYSY at positions 84-89; not shown: C-terminal FLAG tag and His6 tag from vector pANT65) VRSSSRTPSDKPVAHVVANPQAEGQLQWLNRRANALLANGVELRDNQLVVPSEGLYLIYSQVLFKGQGCPSTHVLLTHTISRITGTYSYKVNLLSAIKSPCQRETPEGAEAKPWYEPIYLGGVFQLEKGDRLSAEINRPDYLDFAESGQVYFGIIAL , report its measured Kd.
0.0667 nM

Looking for the measured Kd of TNF mutein F7 (ligand, Human TNF mutein, SETVVG at positions 84-89; not shown: C-terminal FLAG tag and His6 tag from vector pANT65) VHSSSRTPSDKPVAHVVANPQAEGQLQWLNRRANALLANGVELRDNQLVVPSEGLYLIYSQVLFKGQGCPSTHVLLTHTISRISETVVGKVNLLSAIKSPCQRETPEGAEAKPWYEPIYLGGVFQLEKGDRLSVEINRPDYLDFAESGQVYFGIIAL , can you help?
0.0353 nM

May I ask what Kd has been recorded for TNF mutein F3 (ligand, Human TNF mutein, TTTYRL at positions 84-89; not shown: C-terminal FLAG tag and His6 tag from vector pANT65) VRSSSRTPSDKPVAHVVANPQAEGQLQWLNRRANALLANGVELRDNQLVVPSEGLYLIYSQVLFKGQGCPSTHVLLTHTISRITTTYRLKVNLLSAIKSPCQRETPEGAEAKPWYEPIYLGGVFQLEKGDRLSAEINRPDYLDFAESGQVYFGIVAL ?
0.023 nM
